- RUN_DESCRIPTION: yeast display, Sf9 membrane polyspecificity reagent, FACS + sequencing; frameworks hold sequencing errors

ITEM_SEQUENCE	polyreactivity (PSR sort gate)
QVQLEESWGGLVQAGGSLRLSCAASGSIYWEYAMGWYTPAPGKEREFVATISARGGRTYYADSVKGRFTISRDNAKNTVYLQMNSLKPEDTAVYYCANVGVFHLRDNYRFDFWGQGTQVTVSS	low polyreactivity
QVQLVESGGGLVQAGGSLRLSCAASGRIFAYYAMGWYRQAPGKDRELVATIRSGGDTNYADSVKGRFTISRDNAKNTVDIQMNSLKTEDTAVYYCNALYYWWYPHEYNYWGQGTQVTVSS	low polyreactivity
